The origin of these recorded values is patent US20260265221A1.

// half-life lookup, one value per entry
- procedure_details: In vivo pharmacokinetic experiment in CD-1 mice
- test_conditions: mouse, plasma, iv; Injection (1 mg/kg), CD-1 female mice
# number only, unit h dropped from output

Prompt: Suppose we examine the compound Cc1nc2ccc(CN3CCN(c4ccc(C(=O)N[C@@H]5C[C@@H]5F)nc4F)CC3)cc2[nH]c1=O [Compound 2] ; what half-life value has been reported?
Response: 1.48

====

// Vd lookup, one value per entry
- procedure_details: In vivo pharmacokinetic experiment in CD-1 mice
- test_conditions: mouse, plasma, iv; Injection (1 mg/kg), CD-1 female mice; read-out: Vdss
Returns: string containing the numeric result and its unit.

Prompt: Suppose we examine the compound Cc1nc2ccc(CN3CCN(c4ccc(C(=O)N[C@@H]5C[C@@H]5F)nc4F)CC3)cc2[nH]c1=O ; what Vd value has been reported?
Response: 0.76 L/kg

Prompt: Suppose we examine the compound Cc1nc2ccc(CN3CCN(c4ccc(C(=O)N[C@H]5C[C@H]5F)nc4F)CC3)cc2[nH]c1=O ; what Vd value has been reported?
Response: 1.13 L/kg

Prompt: Suppose we examine the compound Cc1nc2ccc(CN3CCN(c4ccc(C(=O)NC5CC5)nc4F)CC3)c(F)c2[nH]c1=O ; what Vd value has been reported?
Response: 2.38 L/kg

Prompt: Suppose we examine the compound Cc1nc2ccc(CN3CCN(c4ccc(C(=O)NC5CC5)nc4F)CC3)cc2[nH]c1=O ; what Vd value has been reported?
Response: 0.73 L/kg

Prompt: Suppose we examine the compound CNC(=O)c1ccc(N2CCN(Cc3ccc4nc(C)c(=O)[nH]c4c3F)CC2)c(F)n1 [AZD9574, reference compound] ; what Vd value has been reported?
Response: 2.03 L/kg

====

// half-life lookup, one value per entry
- procedure_details: In vivo pharmacokinetic experiment in CD-1 mice
- test_conditions: mouse, plasma, iv; Injection (1 mg/kg), CD-1 female mice
- Method: CD-1 female mice aged 7 to 10 weeks were intravenously administered and orally administered at doses of 1 mg/kg and 10 mg/kg, respectively. On the day of the experiment, animals in the intravenous group were given the corresponding compound by single injection via the tail vein at an administration volume of 2 mL/kg, and animals in the oral group were given the corresponding compound by single intragastric injection at an administration volume of 10 mL/kg. […]
# number only, unit h dropped from output

Prompt: Suppose we examine the compound Cc1nc2ccc(CN3CCN(c4ccc(C(=O)NC5CC5)nc4F)CC3)cc2[nH]c1=O [Compound 9] ; what half-life value has been reported?
Response: 3.41

Prompt: Suppose we examine the compound Cc1nc2ccc(CN3CCN(c4ccc(C(=O)N[C@H]5C[C@H]5F)nc4F)CC3)cc2[nH]c1=O [Compound 1] ; what half-life value has been reported?
Response: 3.13

Prompt: Suppose we examine the compound CNC(=O)c1ccc(N2CCN(Cc3ccc4nc(C)c(=O)[nH]c4c3F)CC2)c(F)n1 [AZD9574, reference compound] ; what half-life value has been reported?
Response: 4.54

Prompt: Suppose we examine the compound Cc1nc2ccc(CN3CCN(c4ccc(C(=O)NC5CC5)nc4F)CC3)c(F)c2[nH]c1=O [Compound 10] ; what half-life value has been reported?
Response: 5.07
